src = the supplement of paper PMC10567573

experiment: protein stability index of a GFP-peptide fusion (GPS, HEK-293T) (PSI 1-6); higher = more stable; conditions: treatment: DMSO; c terminus: a fixed tail appended;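 note: 24-mer peptide tiles fused after GFP, lentivirally expressed, FACS-sorted into six equal bins by GFP/DsRed ratio, decoded by Illumina sequencing, PSI is the read-weighted mean bin number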
Binary classification by protein stability index, with 3 as an inclusive lower bound for YES; all other cases are NO.

[
  {
    "Query sequence": "IPYWVAYYLALLLSLLVMVISPVI [NSDHL]",
    "Class name": "NO"
  },
  {
    "Query sequence": "ENSHTNTEVLRNMGFAAKAMKSVH [CHMP4C]",
    "Class name": "YES"
  },
  {
    "Query sequence": "LLVYDITNRWSFDGIDRWIKEIDE [RAB40C]",
    "Class name": "NO"
  },
  {
    "Query sequence": "GQGLKSYMTKPSKSLLPHLKTGNS [RTP4]",
    "Class name": "YES"
  },
  {
    "Query sequence": "GLGVLRALGSRGWEPFDWGRLLEA [FANCE]",
    "Class name": "NO"
  },
  {
    "Query sequence": "FFKGIDQDIERGVQSEIFLHESYC [LYSMD4]",
    "Class name": "NO"
  },
  {
    "Query sequence": "DVHNRIVIRGLNTIPLFVQLLYSP [CTNNB1]",
    "Class name": "NO"
  },
  {
    "Query sequence": "SEEEKELYLNLALHLASDFFLKHP [PDS5B]",
    "Class name": "NO"
  }
]

Task: Confirm if protein stability index reported for the sequence TSVEEESFGPQPISRLEQCGINAN [RAD51] is 3 or above.
Output: YES

Task: Textbook exercise: given the entry DDVRLLCHLTPSIYTEFPDETLRS [INTS3] , state whether its protein stability index is greater than or equal to 3.
Output: YES

Task: Evaluate KKAPQPAKPRLAERMTTREKKVLE [HDAC6] : protein stability index at minimum 3?
Output: YES

Task: Is the recorded value of protein stability index equal to or greater than 3 for this sequence? LVAPVLEPGKQERDVYLPAGKWRS [MYORG]
Output: YES

Task: # check: protein stability index of RKEMATILSKMPKPKPPPNSEGEQ [CCNC] is greater than or equal to 3
Output: YES

Task: Is reported protein stability index greater than or equal to 3 here: NEKITMQNLNDRLASYLEKVRALE [KRT13]
Output: NO

Task: In plain terms: is recorded protein stability index at least 3 for DLRHLRAVPTDEARAFAEKNNLSF [RAB11B] ?
Output: YES

Task: Reported protein stability index at or above 3? PEEFSLLKLQTKDGHRPEWTFYPR [SPATS1]
Output: NO

Task: Decide: protein stability index of MTMIVSLAAVAWVGQQVHNLLLTY [ARL6IP1] >= 3?
Output: YES

Task: hey, is protein stability index for this one >= 3? WDPSVQSCKEGLSPRGPAPGEEKF [ZNF263]
Output: YES

Task: # bool: protein stability index of QGHPQTGCECEDGPDGQEMDPPNP [GAGE1] >= 3
Output: YES

Task: Does SSSCAVHDLIFWRDVKKTGFVFGT [RTN3] have a reported protein stability index of at least 3?
Output: NO

Task: State whether the measured protein stability index reaches 3, counting equality as reaching it, for NPNGGSFEEVLSSTAHASAQSLAG [TPD52L1]
Output: YES

Task: Please tell me: is the sequence AENSPYLNPQLVQPAKKPLLWSDP [ESRRG] at or over 3 in terms of protein stability index?
Output: YES
